test: yeast display, Sf9 membrane polyspecificity reagent, FACS + sequencing; frameworks hold sequencing errors
QUANTITY_KIND: polyreactivity (PSR sort gate)

Answered examples (4):
biosequence=QVQLVESGGGLVQAGGSLRLSCSATGRIFVLYDMGWYRQAPGKERELVAGISGSGGRTYYADSVKGRFTISRDNAKNTVYLQMNSLKAEDTAVYYFNALGYYWYRPYVNSNGGYWGQGTLVTVSS result="high polyreactivity"
biosequence=QVQLVESGGGLVQAGGSLRLTCAASGVTFRYYAMVWYRQAPGKERELVAAITGSGTRTYYADSVKGRFTISRDNAKNTLYLQMNSLKPEDTAVYYCNAPRQPRWFDYWGQGTQVTVSS result="high polyreactivity"
biosequence=QVLLVESGGGLVQAGGSLRLSGAASGSTFYNYAMGWNRQAPGKERELVASISDDGSTNYADSVKGRFTISRDNAKNTVYLQMNSLKQVDSAVYSCAAVWWLQFGSAWYQMGYWGQGTQVTVSS result="low polyreactivity"
biosequence=QVQLVESGGGLVQAGGSLRLSCAASGIIFAQYTMGWYRQAPGKERELVAAINRNGGSTYYADSVKGRFTISRDNAKNSVYLQMNSLKPEDTAVYYCNADALGFRYDYWGQGTQVTVSS result="low polyreactivity"

Read the next record carefully.
Consider the sequence QVQLVESGGGLVQAGGSLRLSCAASGSIFSSYAMGWYRQAPGKEREFVAAINNNDGGTDYADSVKGRFTISRDNAKNTVYLQMNSLKPEDTAVYYCAADYTRYVQTTYDYWGQGTQVTVSS and give its recorded polyreactivity (PSR sort gate).
low polyreactivity

====

assay: yeast display, Sf9 membrane polyspecificity reagent, FACS + sequencing; frameworks hold sequencing errors
QUANTITY_KIND: polyreactivity (PSR sort gate)

Worked examples, 10 sequences total:
biosequence=QVQLVESGGGLVQAGGSLRLSCAASGLMVTYYAMCGYRPAPGKARELVAAINYSGGSTYDADSVKGRFTISRDNAKTTVYLLMNSLKPEDTAVYYCAARRFTQTEGPMGYWGQGTQVTFSS quantity_kind="polyreactivity (PSR sort gate)" result="low polyreactivity"
biosequence=QVQLVESGGGLFQAGGSLRLSCAASGSTFYSYAMGWYRKAPGKERELVAAISRNGGYTYYADSVKGRFTISRDNAKNTVYLQMNSLKPEDTAVYYCAALRYVHGYDYWGQGTQVTGSS quantity_kind="polyreactivity (PSR sort gate)" result="high polyreactivity"
biosequence=QDQLVESGGGLVQAGGSLRLSCAASGLTFTYYAMGWYRQAPGKERELVAAMTWNGGRTYYADSVKGRFTISRDNAKNTVYLLMNSLKPEDTAVYYCNARYILSSSGFGYWRQGTQVTVSS quantity_kind="polyreactivity (PSR sort gate)" result="high polyreactivity"
biosequence=QVQLVESGGGLVQAGGSLRLSCAASGSIFYYNTMGWYRQAPGKERELVAAISRSGTSTFYADSVKGRFTISRDYAKNTVYLQMNSLKPEDTAVYYCNAESLGWYRLYTVDYWGQGTQVTVSS quantity_kind="polyreactivity (PSR sort gate)" result="low polyreactivity"
biosequence=QVQLVESGGGLVQAGVSLRLSCAASGITLYRYVMGWNRQAPGKERELVADISGRGTSTYYADSVKGRFTSSRDYAKNTVYLQMYRLKPEATAVYYCNAEYTKTGALGIPYTYYYAEDYWGQGTQVTVSS quantity_kind="polyreactivity (PSR sort gate)" result="low polyreactivity"
biosequence=QVHLVESGGGLVQSGGSLRLTCAASGRTFSQYAMGWYRQAPWKERDLVAAISWSGGSTYYADSVKGRFTFSRDNAKNTVYLEMNSLKPEDTAVYYCAAVGKGSARSSYQVLYDYWGQGTQVNVSS quantity_kind="polyreactivity (PSR sort gate)" result="low polyreactivity"
biosequence=QVQLVESGGGLVQAGGSLRLSCAASGTTISAYDMGRYRQAPGKEREMVAAITWIGGNTYYADSVKGRFTISRDNAKNTVYLQMNSLKPEDTAVYYCAAEEVPYDRDMDYWGQGTKVTVSS quantity_kind="polyreactivity (PSR sort gate)" result="low polyreactivity"
biosequence=QVQLVESGGGLVQAGGSLRLSCAASGSTFYKYAMGWYRQAPGKERELVAAITRSGGSTYYADSVKGRFTISRDNAKNTVYLQMNSLKPEDTAVYYCNADRKSRSKGVGYDYWGQGTQVTVSS quantity_kind="polyreactivity (PSR sort gate)" result="high polyreactivity"
biosequence=QVQHVESGGGLVQAGGSLRLSCAATGRIFTAYYAMGWYRQAPGKERELVASISSSGTSTYADSVKGRFTISRDNAKNTVYLQMNSLKPDDTAVYYCATRKLRTRRYDYGYWGQGTQVTVSS quantity_kind="polyreactivity (PSR sort gate)" result="low polyreactivity"
biosequence=QVQLVESGGGLVQAGCSLRLSCAASGFIFGPNAMGWYRQAPGKERELVAAISWIGSSTYYADSVKGRFTISRDNAKNTVYLQMNSLKPQDNAVYYCAADSSERRLMDFDYWGQGTQVTVSS quantity_kind="polyreactivity (PSR sort gate)" result="low polyreactivity"

Provide only the value of recorded polyreactivity (PSR sort gate) for QVQLVESGGGLVQAGGSLRLSCAASGRIFDYNAMGWYRQAPGKERELVAAISVSGGSTYYADSVKGRFTISRDNAKNTVYLQMNSLKPEDTAVYYCNAGYILDSFRYDHWGHGTQVTVSS
low polyreactivity

Tell me measured polyreactivity (PSR sort gate) for QVQLVESGGGLVQAGGSLRLSCAASGLNFYGYFMGWYRQAPGKERELVAAISATGGSTYYADSVKGRFTISRDTAKNTVYLQMNSLKPEETAVYYCAATYYSYTWFSQYYYWGQGTQVTVSS please.
high polyreactivity

Answer with reported polyreactivity (PSR sort gate) of QVQLVESGGGLVQAGGSLRLSCAASGSIFVEYDMGWYIQAPGKERELVADISGTGNTYYADSVKGRFTISRDNAQNTVYLQMNSLKPEDTSVYYCAAGTYFTNYWSPFVWYDYWGQGTQVTVSS
high polyreactivity

Answer with the recorded polyreactivity (PSR sort gate) of QVQLGESGGGLVQAGGSLRLSCAASGRIFSYYAMGWYRQAPGKERELVATIDRSGDPTSYADSVKGRFTISRDNAKNTVYLQMNSLKPEDTAVYYCAATSKRARYDSWGHGTQVTVSS only.
high polyreactivity

Output measured polyreactivity (PSR sort gate) for this item: QVQLVESGGGLVQAGGSLRLSCAATGSIFFINAMGWYRQAPGKERELVAAITWDGGSTYYADSVKGRFTISRVNAKNTVYLQMNSLKPEDTAVYYCAAVADYYDFISPPLDYWGQGTQVNVSS
low polyreactivity

====

assay: yeast display, Sf9 membrane polyspecificity reagent, FACS + sequencing; frameworks hold sequencing errors
QUANTITY_KIND: polyreactivity (PSR sort gate)

In the examples that follow, each entry is paired with its recorded polyreactivity (PSR sort gate).
biosequence=QVQLVESGVGLVQAGGSLRLSCAASGSTFYRNTMGWYRQAPGKERELVAAINTSGASTYYADSVKGRFTISRDNAKNTVYLQMNSLKPEDTAVYYCAALYRGYTGGYKFYYWGQGTQVTVSS result="high polyreactivity"
biosequence=QVQLVESGGGLVQAGGSLRLSCAASGSILVPYSMGWYRQAPGKERELVAAISWGGGSTYYADSVKGRFTISRDNAKNTVYLQMNSLKPEDTAVYYCAADFGYYDYDYWGQGTQVTVSS result="low polyreactivity"
biosequence=QVQLVESGGGLVQAGGSLRLSCAASGSNFLTYAMGRYRQAPGKEREFVAAISTSGVSTYYADSVKGRFTISRDNAKNTVYLQMNSLKPEDTAVYFCAAVYDLGYYGPIWAIVLDDYWGQGTQVTVSS result="low polyreactivity"
biosequence=QVQLVDSGGGLVQAGGSLRLICAASGRTIDNYAMGWYRQAPGKERELVAVISRSGDRRYYPDSEKGRFTISRDNAKNTVYLPMKSLKPEDTAVYYCNAVYGRSIYDGLFYTYDYWGQCTQVTVSS result="high polyreactivity"

Now for another entry.
Find the measured polyreactivity (PSR sort gate) of QVHLVDSGGGLVQAGGSLRLSCAASGYIFPYNAMGWYRQEPGKERELVATITGTGGSTYYADSVKGRFTISRDNAKITVYLQMNSLKPEDTAVFYCAADLSIRYDHEYGYWGQGTQLTVSS and report it.
low polyreactivity

====

test: yeast display, Sf9 membrane polyspecificity reagent, FACS + sequencing; frameworks hold sequencing errors
QUANTITY_KIND: polyreactivity (PSR sort gate)

biosequence=QVQLVESGGGLVQAGGSLRLSCAASGFTFYWNTMGWYRPAPGKERELVAAISWSGGDTDYADSVKGRFTISRDNAKNTVYLQMNSLKPEDTAVYYCNSIYVSDRSSAVSFDYWGQGTQVNVSS result="low polyreactivity"
biosequence=QVQLVESGGGLVQAGGSLRLTCAASGFIFAYYVMGWYRQAPGKERELVAAITSSDGITYYADSVKGRFTISRDNAKNTVYLQMNSLKPEDTAVYYCNADVYPDVGWRESDYWGQGTQVTVSS result="low polyreactivity"
biosequence=QVQLVESGGGLVQAGGSLRLSCAASGLIFRVYAMGRYRQAPGKERELVATITRGGRTYYADSVKGRFTISRDNAKNTVYLQMNSLKPEDTAVYYCAVLSVRRSYNYWGQGTQVTVSS result="high polyreactivity"
biosequence=QVQLVESGGGLVQARGSLRLSCAASGRTFYYYAMGWSRQAPGKERELVATISSGGSTSYADSVKGRFTISRDNAKNTVNLQMNSLKPEDTAVYYWNGRGRYLGTYHLGRLYNFWGQGTQVTVSS result="high polyreactivity"
biosequence=QLQLVESAGGLVQAGGSLRLSCAASGIIFSYYAMGWYRKAPGKERELVAAISWSGGSTYYADSVKGRFTISRDNAKNTVYLQLNSLKPEDTAVYYCAADDYLAYEYWGQGTQVTVSS result="high polyreactivity"

Let's switch to this sequence now.
Name the recorded polyreactivity (PSR sort gate) of the item QGQLVESGGGLGQAGGSLRLSSAASGRTFGRYAMGWYRQAPGNERELVAAISYSTDSTYYADSVKGRFTISRDNAKNTVYLQMNSLKPEDTAVYYCATDSVNVGSYVGDKHDYWGQGSQVTVSS in your answer.
low polyreactivity
